All figures here come from paper PMC6277434.

Molecular target: HMGCR (TM1-8)-GFP (Cricetulus griseus)
Sequence (P00347 1-346): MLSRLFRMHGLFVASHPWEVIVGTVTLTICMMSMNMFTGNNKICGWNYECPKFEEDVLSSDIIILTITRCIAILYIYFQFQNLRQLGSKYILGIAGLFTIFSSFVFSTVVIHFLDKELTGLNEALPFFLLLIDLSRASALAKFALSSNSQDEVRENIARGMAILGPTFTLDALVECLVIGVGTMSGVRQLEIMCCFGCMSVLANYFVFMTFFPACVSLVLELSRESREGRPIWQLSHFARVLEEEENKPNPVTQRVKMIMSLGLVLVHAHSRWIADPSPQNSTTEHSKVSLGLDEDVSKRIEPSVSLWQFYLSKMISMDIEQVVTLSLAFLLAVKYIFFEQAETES
// NB: equality with 1000 nM counts as false (0); only DC50 strictly below is true (1)

# Molecule, Discrete Label
measured = [
    ("CCC(O)CC[C@@H](C)C1CCC2C3C(CC[C@@]21C)[C@@]1(C)CC[C@H](O)C(C)(C)C1=C[C@@H]3O (some centres unmarked) [Compound 64]", "false (0)"),
    ("CCC(O)CCC[C@@H](C)C1CCC2C3C(CC[C@@]21C)[C@@]1(C)CC[C@H](O)C(C)(C)C1=C[C@@H]3O (some centres unmarked) [Compound 87]", "false (0)"),
    ("CC(O)CCCCC[C@@H](C)C1CCC2C3C(CC[C@@]21C)[C@@]1(C)CC[C@H](O)C(C)(C)C1=C[C@@H]3O (some centres unmarked) [Compound 124]", "true (1)"),
    ("C=CCC(O)(CC=C)CCCC(C)C1CCC2C3C(O)C=C4C(C)(C)C(O)CCC4(C)C3CCC12C (centres unmarked) [Cmpd 81]", "true (1)"),
    ("COCCC[C@@H](C)C1CCC2C3C(CC[C@@]21C)[C@@]1(C)CC[C@H](O)C(C)(C)C1=C[C@@H]3O (some centres unmarked) [Compound 55]", "false (0)"),
    ("C=CCC(O)(CC=C)CC[C@@H](C)C1CCC2C3C(CC[C@@]21C)[C@@]1(C)CC[C@H](O)C(C)(C)C1=C[C@@H]3O (some centres unmarked) [Compound 58]", "false (0)"),
    ("C=CCC(O)(CC=C)CCCC[C@@H](C)C1CCC2C3C(CC[C@@]21C)[C@@]1(C)CC[C@H](O)C(C)(C)C1=C[C@@H]3O (some centres unmarked) [Compound 102]", "false (0)"),
    ("CC(C)CCC[C@@H](C)[C@H]1CC[C@H]2[C@@H]3CC=C4C(C)(C)[C@@H](O)CC[C@]4(C)[C@H]3CC[C@]12C [Compound 7, 4,4-Dimethyl cholesterol]", "false (0)"),
    ("CCC(O)(CC)CCC[C@@H](C)C1CCC2C3C(CC[C@@]21C)[C@@]1(C)CC[C@H](O)C(C)(C)C1=C[C@@H]3O (some centres unmarked) [Compound 80]", "true (1)"),
    ("C[C@H](CCCCC(=O)O)C1CCC2C3C(CC[C@@]21C)[C@@]1(C)CC[C@H](O)C(C)(C)C1=C[C@@H]3O (some centres unmarked) [Compound 92]", "false (0)"),
    ("C=CCC(O)CCCCC[C@@H](C)C1CCC2C3C(CC[C@@]21C)[C@@]1(C)CC[C@H](O)C(C)(C)C1=C[C@@H]3O (some centres unmarked) [Compound 126]", "false (0)"),
    ("CCC(O)(CC)CCCC[C@@H](C)C1CCC2C3C(CC[C@@]21C)[C@@]1(C)CC[C@H](O)C(C)(C)C1=C[C@@H]3O (some centres unmarked) [Compound 101]", "true (1)"),
    ("COCCCC[C@@H](C)C1CCC2C3C(CC[C@@]21C)[C@@]1(C)CC[C@H](O)C(C)(C)C1=C[C@@H]3O (some centres unmarked) [Compound 78]", "false (0)"),
    ("C[C@H](CCC(C)(C)O)C1CCC2C3C(CC[C@@]21C)[C@@]1(C)CC[C@H](O)C(C)(C)C1=C[C@@H]3O (some centres unmarked) [Compound 56]", "false (0)"),
    ("C=CCC(O)CCCC[C@@H](C)C1CCC2C3C(CC[C@@]21C)[C@@]1(C)CC[C@H](O)C(C)(C)C1=C[C@@H]3O (some centres unmarked) [Compound 109]", "true (1)"),
    ("C[C@H](CCCO)C1CCC2C3C(CC[C@@]21C)[C@@]1(C)CC[C@H](O)C(C)(C)C1=C[C@@H]3O (some centres unmarked) [Compound 51]", "false (0)"),
    ("CC(C)CCC[C@@H](C)[C@H]1CCC2C3C(=NO)C=C4C(C)(C)[C@@H](O)CC[C@]4(C)C3CC[C@@]21C (some centres unmarked) [Compound 34]", "false (0)"),
    ("C[C@H](CCCC(C)(C)O)C1CCC2C3C(CC[C@@]21C)[C@@]1(C)CC[C@H](O)C(C)(C)C1=C[C@@H]3O (some centres unmarked) [Compound 79]", "true (1)"),
    ("C=CCC(O)CCC[C@@H](C)C1CCC2C3C(CC[C@@]21C)[C@@]1(C)CC[C@H](O)C(C)(C)C1=C[C@@H]3O (some centres unmarked) [Compound 88]", "true (1)"),
    ("C[C@H](CCCCC(C)(C)O)C1CCC2C3C(CC[C@@]21C)[C@@]1(C)CC[C@H](O)C(C)(C)C1=C[C@@H]3O (some centres unmarked) [Compound 100]", "true (1)"),
    ("CC(O)CC[C@@H](C)C1CCC2C3C(CC[C@@]21C)[C@@]1(C)CC[C@H](O)C(C)(C)C1=C[C@@H]3O (some centres unmarked) [Compound 63]", "false (0)"),
    ("C=CCC(O)(CC=C)CCCCC[C@@H](C)C1CCC2C3C(CC[C@@]21C)[C@@]1(C)CC[C@H](O)C(C)(C)C1=C[C@@H]3O (some centres unmarked) [Compound 119]", "false (0)"),
    ("COC(=O)CC[C@@H](C)C1CCC2C3C(CC[C@@]21C)[C@@]1(C)CC[C@H](O)C(C)(C)C1=C[C@@H]3O (some centres unmarked) [Compound 49]", "false (0)"),
    ("C[C@H](CCCCCO)C1CCC2C3C(CC[C@@]21C)[C@@]1(C)CC[C@H](O)C(C)(C)C1=C[C@@H]3O (some centres unmarked) [Compound 96]", "false (0)"),
]
